Tested on: PC14 cells, scramble vector control
Assay: MTT growth assay, transient scramble control
Type: cell-based
Settings: Homo sapiens, PC-14
test-readout: pIC50
Keep it numeric: pIC50 is minus log10 of the concentration in mol/L.

// query So what's the measured pIC50 for this one? O=C(/C=C\n1cnc(-c2cc(C(F)(F)F)cc(C(F)(F)F)c2)n1)NNc1cnccn1 [KPT-330]
// result 6.71

###

System: H1975 cells stably carrying shp73
Assay: MTT growth assay, p73-knockdown cells
Type: cell-based
Conditions: Homo sapiens, NCI-H1975, 72 h
test-readout: IC50

// query I am curious: what IC50 value has been reported for O=C(/C=C\n1cnc(-c2cc(C(F)(F)F)cc(C(F)(F)F)c2)n1)NNc1cnccn1 [KPT-330] ?
// result > 1000 nM
